This collection of values is drawn from patent US20240116985A1.

Readings of CHI Log D for the listed molecules
Test: CHI Log D procedure
Assay type: physicochemical
Conditions: pH 7.4

[
  {
    "Molecule": "CC(=O)N1CCC[C@]12CC=CCCCC1(CCCC=CCCCOC(=O)N3CC[C@@](C(=O)N[C@@H](Cc4ccsc4)C(=O)N[C@@H](Cc4csc5ccccc45)C(=O)N[C@@H](CO)C(N)=O)(C3)NC(=O)[C@H](Cc3ccccc3)NC(=O)[C@H](Cc3ccccc3)NC(=O)[C@H](C)NC(=O)[C@H](C)NC(=O)[C@H](Cc3cccc(C(=O)O)c3)NC(=O)[C@H](CC(=O)O)NC1=O)NC(=O)[C@H](CC(C)(C)C)NC(=O)[C@H](CC(=O)O)NC2=O (some centres unmarked) [I-982]",
    "CHI Log D": 1.853
  },
  {
    "Molecule": "CC[C@H](C)[C@@H]1NC(=O)[C@H](CC(=O)O)NC(=O)[C@]2(CC=CCCCC3(CCCC=CCCCCCC[C@@](C)(C(=O)N[C@@H](Cc4ccccc4)C(=O)N[C@@H](Cc4csc5ccccc45)C(=O)N[C@@H](Cc4c[nH]cn4)C(N)=O)NC(=O)[C@H](CC(N)=O)NC(=O)[C@H](Cc4ccccc4)NC(=O)[C@H](C)NC(=O)[C@H](C)NC(=O)[C@H](CC(=O)O)NC(=O)[C@H](CC(=O)O)NC3=O)NC1=O)CCCN2C(C)=O (some centres unmarked) [I-469]",
    "CHI Log D": 2.354
  }
]

====

Molecular target: full-length beta-Catenin (Uniprot ID P35222) (Homo sapiens, UniProt P35222)
Construct: 10 nM full-length beta-Catenin (Uniprot ID P35222)
Sequence (P35222 whole entry): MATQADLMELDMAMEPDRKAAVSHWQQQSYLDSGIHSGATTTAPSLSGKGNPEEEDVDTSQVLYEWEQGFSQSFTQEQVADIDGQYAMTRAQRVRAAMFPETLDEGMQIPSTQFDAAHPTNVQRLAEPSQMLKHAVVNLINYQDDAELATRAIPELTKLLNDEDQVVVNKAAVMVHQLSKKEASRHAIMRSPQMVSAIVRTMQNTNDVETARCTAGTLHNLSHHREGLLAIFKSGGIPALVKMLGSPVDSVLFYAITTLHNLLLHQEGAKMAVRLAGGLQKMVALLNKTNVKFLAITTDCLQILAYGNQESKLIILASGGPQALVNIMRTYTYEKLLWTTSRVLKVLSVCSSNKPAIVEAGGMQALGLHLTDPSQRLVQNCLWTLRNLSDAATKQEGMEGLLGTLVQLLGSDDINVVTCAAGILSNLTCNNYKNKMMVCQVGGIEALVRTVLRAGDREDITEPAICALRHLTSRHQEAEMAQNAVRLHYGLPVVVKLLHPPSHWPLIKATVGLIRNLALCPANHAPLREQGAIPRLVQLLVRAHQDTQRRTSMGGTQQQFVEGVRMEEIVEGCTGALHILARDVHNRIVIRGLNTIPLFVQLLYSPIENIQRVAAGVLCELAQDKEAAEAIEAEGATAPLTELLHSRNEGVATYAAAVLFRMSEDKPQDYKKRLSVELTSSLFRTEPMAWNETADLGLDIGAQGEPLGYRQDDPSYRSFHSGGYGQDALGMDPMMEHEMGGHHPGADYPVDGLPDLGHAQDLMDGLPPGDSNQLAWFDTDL
Experiment: Fluorescence polarization IC50 (beta-catenin / 5FAM-TCF4 10-53 competition)
Format: binding
Settings: fluorescence polarization; read-out: beta-Catenin FP IC50

[
  {
    "Compound": "CC(=O)N1CCC[C@]12CC=CCCCC1(CCCC=CCCCCOC(=O)N3CC[C@@](C(=O)N[C@@H](Cc4ccccc4)C(=O)N[C@@H](Cc4csc5ccccc45)C(=O)N[C@@H](CCC(N)=O)C(N)=O)(C3)NC(=O)[C@H](CC(N)=O)NC(=O)[C@H](Cc3ccccc3)NC(=O)[C@H](C)NC(=O)[C@H](C)NC(=O)[C@H](CCC(=O)O)NC(=O)[C@H](CC(=O)O)NC1=O)NC(=O)[C@H](C)NC(=O)[C@H](CC(=O)O)NC2=O (some centres unmarked) [I-463]",
    "IC50 / nM": 92
  },
  {
    "Compound": "CC(=O)N1CCC[C@]12CC=CCCCC1(CCCC=CCCCCCC[C@@](C)(C(=O)N[C@@H](Cc3ccccc3)C(=O)N[C@@H](Cc3csc4ccccc34)C(=O)N[C@@H](CCC(N)=O)C(N)=O)NC(=O)[C@H](CCC(N)=O)NC(=O)[C@H](Cc3ccccc3)NC(=O)[C@H](C)NC(=O)[C@H](C)NC(=O)[C@H](CCC(=O)O)NC(=O)[C@H](CC(=O)O)NC1=O)NC(=O)[C@H](CC(N)=O)NC(=O)[C@H](CC(=O)O)NC2=O (some centres unmarked) [I-1531]",
    "IC50 / nM": 84
  }
]

====

Readings of pIC50 for the listed molecules
Molecular target: beta-catenin/TCF4 engagement (Homo sapiens)
Construct: expressed in transfected cells; host or cells: HEK293
Test: Nano-BRET target engagement assay (B-cat-Halo & TCF4-Luc in HEK293 cells)
Format: cell-based
Conditions: absolute IC50; read-out: NanoBRET Abs IC50
pIC50: −log10 of the molar value.

[
  {
    "Molecule": "CC(=O)N1CCC[C@]12CC=CCCCC1(CCCC=CCCCOC(=O)N3CC[C@@](C(=O)N[C@@H](Cc4ccccc4C)C(=O)N[C@@H](Cc4csc5ccccc45)C(=O)N[C@@H](CCC(N)=O)C(N)=O)(C3)NC(=O)[C@H](CC(C)C)NC(=O)[C@H](Cc3ccccc3)NC(=O)[C@H](C)NC(=O)[C@H](C)NC(=O)[C@H](CN(CC(=O)O)CC(F)(F)F)NC(=O)[C@H](CC(=O)O)NC1=O)NC(=O)[C@H](CC(C)(C)C)NC(=O)[C@H](CC(=O)O)NC2=O (some centres unmarked)",
    "Value Operator": "=",
    "pIC50": 5.00
  },
  {
    "Molecule": "CC(=O)N1CCC[C@]12CC=CCCCC1(CCCC=CCCCCCC[C@@](C)(C(=O)N[C@@H](Cc3ccccc3)C(=O)N[C@@H](Cc3csc4ccccc34)C(=O)N[C@@H](CCC(N)=O)C(N)=O)NC(=O)[C@H](CCO)NC(=O)[C@H](Cc3ccccc3)NC(=O)[C@H](C)NC(=O)[C@H](C)NC(=O)[C@H](CCC(=O)O)NC(=O)[C@H](CC(=O)O)NC1=O)NC(=O)[C@H](CCO)NC(=O)[C@H](CC(=O)O)NC2=O (some centres unmarked) [I-1548]",
    "Value Operator": "<",
    "pIC50": 4.70
  },
  {
    "Molecule": "CC(=O)N1CCC[C@]12CC=CCCCC1(CCCC=CCCCOC(=O)N3CC[C@@](C(=O)N[C@@H](Cc4ccccc4Cl)C(=O)N[C@@H](Cc4ccc5ccccc5c4)C(=O)N[C@@H](CCC(N)=O)C(N)=O)(C3)NC(=O)[C@H](CC(C)C)NC(=O)[C@H](Cc3ccccc3)NC(=O)[C@H](C)NC(=O)[C@H](C)NC(=O)[C@H](CC(=O)O)NC(=O)[C@H](CC(=O)O)NC1=O)NC(=O)[C@H](CC(C)(C)C)NC(=O)[C@H](CC(=O)O)NC2=O (some centres unmarked)",
    "Value Operator": "=",
    "pIC50": 4.40
  },
  {
    "Molecule": "CC(=O)N1CCC[C@]12CC=CCCCC1(CCCC=CCCCOC(=O)N3CC[C@@](C(=O)N[C@@H](Cc4ccsc4)C(=O)N[C@@H](Cc4csc5ccccc45)C(=O)N[C@@H](CCC(=O)N4CCC(N5CCN(C)CC5)CC4)C(N)=O)(C3)NC(=O)[C@H](CC(C)C)NC(=O)[C@H](Cc3ccccc3)NC(=O)[C@H](C)NC(=O)[C@H](C)NC(=O)[C@H](CN(CC(=O)O)CC(F)(F)F)NC(=O)[C@H](CC(=O)O)NC1=O)NC(=O)[C@H](CC(C)(C)C)NC(=O)[C@H](CC(=O)O)NC2=O (some centres unmarked) [I-1801]",
    "Value Operator": "=",
    "pIC50": 4.76
  },
  {
    "Molecule": "CC(=O)N1CCC[C@]12CC=CCCCC1(CCCC=CCCCOC(=O)N3CC[C@@](C(=O)N[C@@H](Cc4ccccc4Cl)C(=O)N[C@@H](Cc4csc5ccccc45)C(=O)N[C@@H](CCC(N)=O)C(N)=O)(C3)NC(=O)[C@H](CCCCNC(C)C)NC(=O)[C@H](Cc3ccccc3)NC(=O)[C@H](C)NC(=O)[C@H](C)NC(=O)[C@H](CCC(=O)O)NC(=O)[C@H](CC(=O)O)NC1=O)NC(=O)[C@H](CC(C)(C)C)NC(=O)[C@H](CC(=O)O)NC2=O (some centres unmarked)",
    "Value Operator": "=",
    "pIC50": 4.65
  }
]
